details: in cyclohexanone, 313.15 K
result type: solubility (mole fraction)
Please reply with the number alone, leaving off any unit.

Sample "CC(C)(c1ccc(O)cc1)c1ccc(O)cc1" ; solubility (mole fraction) observed: 0.235

* * *

conditions: in methyl acetate, 293.15 K
result type: solubility (mole fraction)
Please give only the number in your answer, with no unit.

Per the record, "CC(C)(c1ccc(O)cc1)c1ccc(O)cc1" has solubility (mole fraction) of 0.246

* * *

details: in DMF, 298.15 K
result type: solubility (mole fraction)
Note: the reply should be a number with no unit written.

solubility (mole fraction) for "CC(C)(c1ccc(O)cc1)c1ccc(O)cc1" is 0.383

* * *

details: in isopropanol, 298.15 K
result type: solubility (mole fraction)
Respond using a number only.

# solubility (mole fraction) (molecule: "CC(C)(c1ccc(O)cc1)c1ccc(O)cc1" ) is 0.111

* * *

conditions: in n-propanol, 273.15 K
result type: solubility (mole fraction)
# answer = number (no unit)

"CC(C)(c1ccc(O)cc1)c1ccc(O)cc1" has a reported solubility (mole fraction) of 0.176

* * *

settings: in sec-butanol, 313.15 K
result type: solubility (mole fraction)
Lab note: record just the number, no unit beside it.

// sample "CC(C)(c1ccc(O)cc1)c1ccc(O)cc1" , its solubility (mole fraction) was 0.104

* * *

conditions: in isopropanol, 283.15 K
result type: solubility (mole fraction)
Answer field: number only, no words.

Field solubility (mole fraction) (entry "CC(C)(c1ccc(O)cc1)c1ccc(O)cc1" ) reads 0.0719

* * *

conditions: in acetonitrile, 278.15 K
result type: solubility (mole fraction)

For reference, reported solubility (mole fraction) for "CC(C)(c1ccc(O)cc1)c1ccc(O)cc1" stands at 0.141

* * *

settings: in ethyl acetate, 308.15 K
result type: solubility (mole fraction)
Field format: numeric only.

// recorded solubility (mole fraction) for "CC(C)(c1ccc(O)cc1)c1ccc(O)cc1" : 0.26

* * *

details: in methyl acetate, 298.15 K
result type: solubility (mole fraction)

Value of measured solubility (mole fraction) for the entry "CC(C)(c1ccc(O)cc1)c1ccc(O)cc1" : 0.249

* * *

details: in methyl acetate, 308.15 K
result type: solubility (mole fraction)
Kindly provide the number alone.

// solubility (mole fraction) value for "CC(C)(c1ccc(O)cc1)c1ccc(O)cc1" : 0.257

* * *

details: in DMF, 293.15 K
result type: solubility (mole fraction)
Give the value as a plain number.

Reported solubility (mole fraction) of "CC(C)(c1ccc(O)cc1)c1ccc(O)cc1" : 0.361

* * *

conditions: in DMF, 278.15 K
result type: solubility (mole fraction)
Write no unit; give the number alone.

Recorded solubility (mole fraction) (compound "CC(C)(c1ccc(O)cc1)c1ccc(O)cc1" ): 0.308

* * *

conditions: in methyl acetate, 278.15 K
result type: solubility (mole fraction)
I only need the number, thanks.

The value of solubility (mole fraction) measured for the molecule "CC(C)(c1ccc(O)cc1)c1ccc(O)cc1" turned out to be 0.237

* * *

conditions: in acetonitrile, 303.15 K
result type: solubility (mole fraction)

Just so you know, measured solubility (mole fraction) for "CC(C)(c1ccc(O)cc1)c1ccc(O)cc1" came out at 0.185

* * *

settings: in cyclohexanone, 288.15 K
result type: solubility (mole fraction)
Just the number, please, no unit attached.

// field: solubility (mole fraction); key: "CC(C)(c1ccc(O)cc1)c1ccc(O)cc1" ; value = 0.142

Sourced from BigSolDB 2.1
